Cited source for all entries: patent US20210380703A1

# system-under-test: T1, biotinylated goat anti-human kappa light chain
# T1 construct: Positive control of the ELISA
# assay-summary: ELISA, positive control; note: test concentration or dose not given here
Exercise: state measured optical density for each of the binders provided.
Answers are plain numbers, in OD.

Reference set, count: 3
| binder | optical density (OD) |
| --- | --- |
| 375_G12 (antibody, V domains shown, VH and VL only) VH: EVQLLESGGGLVQPGGSLRLSCAASGFTFDSYGMHWVRQAPGKGLEWVSSINYNGGYTSYADSVKGRFTISRDNSKNTLYLQMNSLRAEDTAVYYCARSATWHDTHLDYWGQGTLVTVSS VL: DIQMTQSPSSLSASVGDRVTITCRASQSIVSYVNWYQQKPGKAPKLLIYAATSRHSGVPSRFSGSGSGTDFTLTISSLQPEDFATYYCQQSYDTPLTFGGGTKVEIK | 3.3 |
| 373_D09 (antibody, V domains shown, VH and VL only) VH: EVQLLESGGGLVQPGGSLRLSCAASGFTFDSYSMNWVRQAPGKGLEWVSGINYNSGYTSYADSVKGRFTISRDNSKNTLYLQMNSLRAEDTAVYYCARSATWHDTHLDYWGQGTLVTVSS VL: DIQMTQSPSSLSASVGDRVTITCRASQSILTYLNWYQQKPGKAPKLVIYAATSRHSGVPSRFSGSGSGTDFTLTISSLQPEDFATYYCQQSYENPLTFGGGTKVEIK | 3.04 |
| 366_F06 (antibody, V domains shown, VH and VL only) VH: EVQLLESGGGLVQPGGSLRLSCAASGFTFSDYGMNWVRQAPGKGLEWVSSINYNGGYTSYADSVKGRFTISRDNSKNTLYLQMNSLRAEDTAVYYCARSATWHDTHLDYWGQGTLVTVSS VL: DIQMTQSPSSLSASVGDRVTITCRASQSISTYLNWYQQKPGKAPKLLIYAATSLASGVPSRFSGSGSGTDFTLTISSLQPEDFATYYCQQSYSNPLTFGGGTKVEIK | 3.44 |

Would you mind giving optical density for every binder in the list below?
1. 367_G08 (antibody, V domains shown, VH and VL only) VH: EVQLLESGGGLVQPGGSLRLSCAASGFTFDSYGMNWVRQAPGKGLEWVSNINYNGGYKGYADSVKGRFTISRDNSKNTLYLQMNSLRAEDTAVYYCARSATWHDTHLDYWGQGTLVTVSS VL: DIQMTQSPSSLSASVGDRVTITCRASQSILSYLNWYQQKPGKAPKLLIYAATSRASGVPSRFSGSGSGTDFTLTISSLQPEDFATYYCQQSYENPLTFGGGTKVEIK
2. 369_C08 (antibody, V domains shown, VH and VL only) VH: EVQLLESGGGLVQPGGSLRLSCAASGFTFSDYGMNWVRQAPGKGLEWVSNINYNGGYTGYADSVKGRFTISRDNSKNTLYLQMNSLRAEDTAVYYCARSATWHDTHLDYWGQGTLVTVSS VL: DIQMTQSPSSLSASVGDRVTITCRASQSILTYLNWYQQKPGKAPKLVIYAATSLASGVPSRFSGSGSGTDFTLTISSLQPEDFATYYCQQSYENPLTFGGGTKVEIK

Response line:
[3.32, 2.8]
